MEASURED_ON: Abl (T315I) (human) (Homo sapiens, UniProt P00519, T315I)
Construct: purchased Millipore Pharma Services (contract assay, UK pharmacology laboratory)
PROTOCOL_NOTES: Abl-T315I kinase inhibition (in vitro)
Assay type: biochemical
EXPERIMENTAL_CONDITIONS: 30 nM
RESULT_TYPE: inhibition at 0.03 µM (%)

Please review the following examples before continuing.
{"INPUT_SMILES": "Cc1ccc(C(=O)NNC(=O)c2c(C)cccc2Cl)cc1C#Cc1cnc2ccccc2n1", "RESULT_TYPE": "inhibition at 0.03 µM", "RESULT_NUMBER": 55}
{"INPUT_SMILES": "Cc1ccc(C(=O)NNC(=O)c2c(F)cccc2C(F)(F)F)cc1C#Cc1cnc2ccccc2c1", "RESULT_TYPE": "inhibition at 0.03 µM", "RESULT_NUMBER": 65}

P. Cc1ccc(C(=O)NNC(=O)c2c(C)cccc2F)cc1C#Cc1cnc2ccccc2c1
Q. Cc1ccc(C(=O)NNC(=O)c2c(C)cccc2Cl)cc1C#Cc1cnc2ccc(Cl)cc2n1
Q: # return whichever of P and Q has the smaller inhibition at 0.03 µM When you have decided, please share the label of that item.
A: Q
(Q: 41%, P: 60%)

* * *

System: K562 cells
PROTOCOL_NOTES: In-vitro cell proliferation assay (MTT), K562 cells
Assay type: cell-based
EXPERIMENTAL_CONDITIONS: Homo sapiens, 10 nM
RESULT_TYPE: inhibition at 0.01 µM (%)
Use % as the unit, but write only the number.

Please review the following examples before continuing.
{"INPUT_SMILES": "Cc1cccc(Cl)c1C(=O)NNC(=O)c1cccc(C#Cc2cnc3ccccc3c2)n1", "RESULT_TYPE": "inhibition at 0.01 µM", "RESULT_NUMBER": 8.6}
{"INPUT_SMILES": "Cc1ccc(C(=O)NNC(=O)c2c(Cl)cccc2C(C)C)cc1C#Cc1cnc2ccccc2c1", "RESULT_TYPE": "inhibition at 0.01 µM", "RESULT_NUMBER": 50.6}
{"INPUT_SMILES": "CCc1cccc(Cl)c1C(=O)NNC(=O)c1ccc(C)c(C#Cc2cnc3ccccc3c2)c1", "RESULT_TYPE": "inhibition at 0.01 µM", "RESULT_NUMBER": 74.2}
{"INPUT_SMILES": "Cc1ccc(C(=O)NNC(=O)c2ccccc2Cl)cc1C#Cc1cnc2ccccc2c1", "RESULT_TYPE": "inhibition at 0.01 µM", "RESULT_NUMBER": 59.9}
{"INPUT_SMILES": "Cc1ccc(C(=O)NNC(=O)c2ccc(CN3CCN(C)CC3)c(C(F)(F)F)c2)cc1C#Cc1cnc2ccccc2c1", "RESULT_TYPE": "inhibition at 0.01 µM", "RESULT_NUMBER": 14.6}
{"INPUT_SMILES": "Cc1ccc(C(=O)NNC(=O)c2c(C)cccc2F)cc1C#Cc1cnc2ccccc2c1", "RESULT_TYPE": "inhibition at 0.01 µM", "RESULT_NUMBER": 68.5}
{"INPUT_SMILES": "Cc1ccc2ncc(C#Cc3cc(C(=O)NNC(=O)c4c(C)cccc4Cl)ccc3C)cc2c1", "RESULT_TYPE": "inhibition at 0.01 µM", "RESULT_NUMBER": 77.7}
{"INPUT_SMILES": "Cc1ccc(C(=O)NNC(=O)c2ccccc2C)cc1C#Cc1cnc2ccccc2c1", "RESULT_TYPE": "inhibition at 0.01 µM", "RESULT_NUMBER": 49}

Q: Sample Cc1ccc(C(=O)NNC(=O)c2c(C)cccc2Cl)cc1C#Cc1cnc2ccccc2n1 — what was its inhibition at 0.01 µM?
A: 79.3

* * *

System: K562 cells
PROTOCOL_NOTES: In-vitro cell proliferation assay (MTT), K562 cells
Assay type: cell-based
EXPERIMENTAL_CONDITIONS: Homo sapiens, 10 nM
In this section we review reported inhibition at 0.01 µM values for a set of compounds.
Use % as the unit, but write only the number.

Please review the following examples before continuing.
{"INPUT_SMILES": "Cc1ccc(C(=O)N(C)NC(=O)c2c(C)cccc2Cl)cc1C#Cc1cnc2ccccc2c1", "MEASURED_ON": "K562 cells", "inhibition at 0.01 µM [%]": 10.2}
{"INPUT_SMILES": "Cc1ccc(C(=O)NNC(=O)c2c(C)cccc2C)cc1C#Cc1cnc2ccccc2c1", "MEASURED_ON": "K562 cells", "inhibition at 0.01 µM [%]": 77.9}
{"INPUT_SMILES": "Cc1ccc(C(=O)NNC(=O)c2c(C)cccc2Br)cc1C#Cc1cnc2ccccc2c1", "MEASURED_ON": "K562 cells", "inhibition at 0.01 µM [%]": 78.9}
{"INPUT_SMILES": "Cc1ccc(C(=O)NNC(=O)c2c(Cl)cccc2Cl)cc1C#Cc1cnc2cccnn12", "MEASURED_ON": "K562 cells", "inhibition at 0.01 µM [%]": 82.5}
{"INPUT_SMILES": "Cc1ccc(C(=O)NNC(=O)c2c(C)cccc2[N+](=O)[O-])cc1C#Cc1cnc2ccccc2c1", "MEASURED_ON": "K562 cells", "inhibition at 0.01 µM [%]": 75.9}
{"INPUT_SMILES": "COc1cccc(C)c1C(=O)NNC(=O)c1ccc(C)c(C#Cc2cnc3ccccc3c2)c1", "MEASURED_ON": "K562 cells", "inhibition at 0.01 µM [%]": 52.2}
{"INPUT_SMILES": "Cc1ccc(C(=O)NNC(=O)c2c(C)cccc2Cl)cc1C#Cc1cnc2ccccn12", "MEASURED_ON": "K562 cells", "inhibition at 0.01 µM [%]": 60.2}
{"INPUT_SMILES": "Cc1ccc(C(=O)NNC(=O)c2c(C)cccc2Cl)cc1C#Cc1cnc2cccnn12", "MEASURED_ON": "K562 cells", "inhibition at 0.01 µM [%]": 104}

With those in mind, consider the next compound.
Q: Short answer please: inhibition at 0.01 µM, K562 cells, entry Cc1ccc(C(=O)NNC(=O)c2c(C)cccc2I)cc1C#Cc1cnc2ccccc2c1
A: 102

* * *

Test system: K562 cells
PROTOCOL_NOTES: In-vitro cell proliferation assay (MTT), K562 cells
Format: cell-based
EXPERIMENTAL_CONDITIONS: Homo sapiens, 10 nM
In this section we review reported inhibition at 0.01 µM values for a set of compounds.
Use % as the unit, but write only the number.

Q: Short answer please: inhibition at 0.01 µM, K562 cells, entry Cc1cc(C)c(C(=O)NNC(=O)c2ccc(C)c(C#Cc3cnc4ccccc4c3)c2)c(C)c1
A: 53.6

Q: Short answer please: inhibition at 0.01 µM, K562 cells, entry Cc1ccc(C(=O)NNC(=O)c2c(C)cccc2Cl)cc1C#Cc1cnc2ccc(Cl)cc2n1
A: 71.8

Q: Short answer please: inhibition at 0.01 µM, K562 cells, entry Cc1ccc(C(=O)NNC(=O)c2c(Cl)cccc2C(F)(F)F)cc1C#Cc1cnc2ccccc2c1
A: 71.1

Q: Short answer please: inhibition at 0.01 µM, K562 cells, entry COc1cccc(Cl)c1C(=O)NNC(=O)c1ccc(C)c(C#Cc2cnc3ccccc3c2)c1
A: 75.5

Q: Short answer please: inhibition at 0.01 µM, K562 cells, entry Cc1ccc(C(=O)NNC(=O)c2c(F)cccc2I)cc1C#Cc1cnc2ccccc2c1
A: 68.1

Q: Short answer please: inhibition at 0.01 µM, K562 cells, entry Cc1ccc(C(=O)NNC(=O)c2c(Cl)cccc2I)cc1C#Cc1cnc2ccccc2c1
A: 77.1

* * *

In this section we review reported inhibition at 0.01 µM values for a set of compounds.
System: K562 cells
PROTOCOL_NOTES: In-vitro cell proliferation assay (MTT), K562 cells
Format: cell-based
EXPERIMENTAL_CONDITIONS: Homo sapiens, 10 nM
Use % as the unit, but write only the number.

Please review the following examples before continuing.
{"INPUT_SMILES": "Cc1ccc(C(=O)NNC(=O)c2c(F)cccc2C(F)(F)F)cc1C#Cc1cnc2ccccc2c1", "UNIT": "%", "inhibition at 0.01 µM": 71.5}
{"INPUT_SMILES": "Cc1cn(-c2cc(C(=O)NNC(=O)c3ccc(C)c(C#Cc4cnc5ccccc5c4)c3)cc(C(F)(F)F)c2)cn1", "UNIT": "%", "inhibition at 0.01 µM": 12.6}

Q: Sample Cc1ccc(C(=O)NNC(=O)c2c(C)cccc2Cl)cc1C#Cc1cnc2ccc(Cl)cc2c1 — what was its inhibition at 0.01 µM?
A: 69.6

Q: Sample Cc1ccc(C(=O)NNCc2cccnc2Cl)cc1C#Cc1cnc2ccccc2c1 — what was its inhibition at 0.01 µM?
A: 27.7

Q: Sample Cc1ccc(C(=O)NNC(=O)c2c(Cl)cc(Cl)cc2Cl)cc1C#Cc1cnc2ccccc2c1 — what was its inhibition at 0.01 µM?
A: 101
